Provide the recorded pKi for the entries that follow.
# testSystem: Kappa-type opioid receptor (Cavia porcellus, UniProt P41144)
# Sequence (P41144 whole entry): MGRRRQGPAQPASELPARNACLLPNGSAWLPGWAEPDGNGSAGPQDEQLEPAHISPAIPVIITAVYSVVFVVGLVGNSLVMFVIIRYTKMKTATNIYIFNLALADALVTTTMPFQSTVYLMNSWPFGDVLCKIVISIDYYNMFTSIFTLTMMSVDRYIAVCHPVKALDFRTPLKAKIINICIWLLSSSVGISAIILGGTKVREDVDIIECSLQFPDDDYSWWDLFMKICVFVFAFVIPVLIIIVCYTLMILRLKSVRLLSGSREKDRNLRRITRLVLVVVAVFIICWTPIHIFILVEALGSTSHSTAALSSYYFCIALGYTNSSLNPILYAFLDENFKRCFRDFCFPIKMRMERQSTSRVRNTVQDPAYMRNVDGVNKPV
# assay: The compound was evaluated for binding affinity against the opioid receptor kappa in guinea pig brain membranes using [3H]- U-69,593
# Assay type: cell membranes, Membrane
Quick note: pKi values are minus log10 of concentrations in mol/L.

Form field: reported pKi of Oc1ccc2c3c1O[C@H]1c4[nH]c5ccccc5c4C[C@H]4[C@@H](C2)N(CCc2ccccc2)CC[C@]314
5.58

Form field: reported pKi of Oc1ccc2c3c1O[C@H]1c4[nH]c5ccccc5c4C[C@H]4C(C2)NCC[C@]314
8.28

* * *

# testSystem: Opioid receptor (Mus musculus, UniProt P42866+P32300+P33534)
# assay: Compound was tested for agonistic activity against the opioid receptor in electrically stimulated mouse vas deference
# Assay type: functional
valueType: IC50
Number first, unit second.

Form field: reported IC50 of Oc1ccc2c3c1O[C@H]1c4[nH]c5ccccc5c4C[C@@]4(O)[C@@H](C2)N(CCc2ccccc2)CC[C@]314
171 nM

Form field: reported IC50 of Oc1ccc2c3c1O[C@H]1c4[nH]c5ccccc5c4C[C@H]4[C@@H](C2)N(CCc2ccccc2)CC[C@]314
179 nM

Form field: reported IC50 of Oc1ccc2c3c1O[C@H]1c4[nH]c5ccccc5c4C[C@@]4(O)C(C2)NCC[C@]314
124 nM

Form field: reported IC50 of Oc1ccc2c3c1O[C@H]1c4[nH]c5ccccc5c4C[C@H]4C(C2)NCC[C@]314
85 nM

* * *

# testSystem: Mu-type opioid receptor (Cavia porcellus, UniProt P97266)
# Sequence (P97266 whole entry): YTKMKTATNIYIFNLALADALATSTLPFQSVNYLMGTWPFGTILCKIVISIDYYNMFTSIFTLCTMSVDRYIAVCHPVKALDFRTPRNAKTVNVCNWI
# assay: The compound was evaluated for binding affinity against opioid receptor mu in guinea pig brain membranes using [3H]- DAMGO as ligand
# Type: cell membranes, Membrane
valueType: pKi
Quick note: pKi values are minus log10 of concentrations in mol/L.

Request body: readout pKi, system Mu-type opioid receptor (Cavia porcellus, UniProt P97266), query Oc1ccc2c3c1O[C@H]1c4[nH]c5ccccc5c4C[C@H]4C(C2)NCC[C@]314 . Return the value.
6.43

Request body: readout pKi, system Mu-type opioid receptor (Cavia porcellus, UniProt P97266), query Oc1ccc2c3c1O[C@H]1c4[nH]c5ccccc5c4C[C@H]4[C@@H](C2)N(CCc2ccccc2)CC[C@]314 . Return the value.
6.76

* * *

# System: Delta-type opioid receptor
# assay: Selectivity for kappa to delta opioid receptors was determined
# measurementConditions: Cavia porcellus
Provide the recorded Ratio for the entries that follow.
Write no unit; give the number alone.

Form field: reported Ratio of Oc1ccc2c3c1O[C@H]1c4[nH]c5ccccc5c4C[C@H]4C(C2)NCC[C@]314
176

Form field: reported Ratio of CN1CC[C@]23c4c5ccc(O)c4O[C@H]2c2[nH]c4ccccc4c2C[C@@]3(O)[C@H]1C5 [OXYMORPHINDOLE]
6380

Form field: reported Ratio of Oc1ccc2c3c1O[C@H]1c4[nH]c5ccccc5c4C[C@H]4[C@@H](C2)N(CCc2ccccc2)CC[C@]314
120

* * *

Provide the recorded Ki for the entries that follow.
# assay: The compound was evaluated for binding affinity against Opioid receptor delta 1 in guinea pig brain membrane using [3H]- DPDPE as ligand
Where a SMILES comes first, the peptide text is derived from it. [ ]: non-standard residue; d: D form. The star is where a group is joined. Tyr(Nα,Nα-allyl2) = C=CCN(CC=C)[C@@H](Cc1ccc(O)cc1)C(=O)*; Aib = CC(C)(N)C(=O)O
Number first, unit second.

Form field: reported Ki of CN1CC[C@]23c4c5ccc(O)c4O[C@H]2c2[nH]c4ccccc4c2C[C@@]3(O)[C@H]1C5 [OXYMORPHINDOLE]
0.7 nM

Form field: reported Ki of C=CCN(CC=C)[C@@H](Cc1ccc(O)cc1)C(=O)NC(C)(C)C(=O)NC(C)(C)C(=O)N[C@@H](Cc1ccccc1)C(=O)N[C@@H](CC(C)C)C(=O)O ({Tyr(Nα,Nα-allyl2)}-[Aib][Aib]FL-OH)
35 nM

* * *

# Organism: Cavia porcellus
# assay: Antagonistic activity against EK in guinea pig ileal longitudinal muscle (GPI)
# Format: functional, Muscle tissue
valueType: IC50 ratio
Write no unit; give the number alone.

Form field: reported IC50 ratio of CN1CC[C@]23c4c5ccc(O)c4O[C@H]2c2[nH]c4ccccc4c2C[C@H]3[C@H]1C5
0.5

Form field: reported IC50 ratio of Oc1ccc2c3c1O[C@H]1c4[nH]c5ccccc5c4C[C@H]4C(C2)NCC[C@]314
1.3

Form field: reported IC50 ratio of Oc1ccc2c3c1O[C@H]1c4[nH]c5ccccc5c4C[C@@]4(O)[C@@H](C2)N(CCc2ccccc2)CC[C@]314
0.8

Form field: reported IC50 ratio of Oc1ccc2c3c1O[C@H]1c4[nH]c5ccccc5c4C[C@H]4[C@@H](C2)N(CCc2ccccc2)CC[C@]314
0.9

Form field: reported IC50 ratio of CN1CC[C@]23c4c5ccc(O)c4O[C@H]2c2[nH]c4ccccc4c2C[C@@]3(O)[C@H]1C5
0.9

Form field: reported IC50 ratio of Oc1ccc2c3c1O[C@H]1c4[nH]c5ccccc5c4C[C@@]4(O)C(C2)NCC[C@]314
0.8

Form field: reported IC50 ratio of CN1CC[C@]23c4c5ccc(O)c4O[C@H]2c2c(c4ccccc4n2C)C[C@@]3(O)[C@H]1C5
0.5

* * *

# testSystem: Mu-type opioid receptor (Cavia porcellus)
# assay: Selectivity for mu to delta opioid receptors was determined
valueType: Ratio
Write no unit; give the number alone.

Form field: reported Ratio of Oc1ccc2c3c1O[C@H]1c4[nH]c5ccccc5c4C[C@H]4[C@@H](C2)N(CCc2ccccc2)CC[C@]314
8

Form field: reported Ratio of CN1CC[C@]23c4c5ccc(O)c4O[C@H]2c2[nH]c4ccccc4c2C[C@@]3(O)[C@H]1C5
669

Form field: reported Ratio of Oc1ccc2c3c1O[C@H]1c4[nH]c5ccccc5c4C[C@@]4(O)C(C2)NCC[C@]314
224

Form field: reported Ratio of Oc1ccc2c3c1O[C@H]1c4[nH]c5ccccc5c4C[C@H]4C(C2)NCC[C@]314
71

* * *

# Species: Mus musculus
# assay: Antagonistic activity against DADLE in smooth muscle preparation (MVD)
# Assay type: functional, Muscle tissue
Lab note: anything with IC50 ratio below 1 is marked satisfied; values at 1 or higher are marked not satisfied.

Regarding Oc1ccc2c3c1O[C@H]1c4[nH]c5ccccc5c4C[C@H]4C(C2)NCC[C@]314 , kindly confirm whether its IC50 ratio is beneath 1.
satisfied

Regarding CN1CC[C@]23c4c5ccc(O)c4O[C@H]2c2[nH]c4ccccc4c2C[C@@]3(O)[C@H]1C5 , kindly confirm whether its IC50 ratio is beneath 1.
not satisfied

Regarding CN1CC[C@]23c4c5ccc(O)c4O[C@H]2c2[nH]c4ccccc4c2C[C@H]3[C@H]1C5 , kindly confirm whether its IC50 ratio is beneath 1.
not satisfied

Regarding Oc1ccc2c3c1O[C@H]1c4[nH]c5ccccc5c4C[C@@]4(O)C(C2)NCC[C@]314 , kindly confirm whether its IC50 ratio is beneath 1.
satisfied

Regarding CN1CC[C@]23c4c5ccc(O)c4O[C@H]2c2c(c4ccccc4n2C)C[C@@]3(O)[C@H]1C5 , kindly confirm whether its IC50 ratio is beneath 1.
not satisfied

Regarding Oc1ccc2c3c1O[C@H]1c4[nH]c5ccccc5c4C[C@@]4(O)[C@@H](C2)N(CCc2ccccc2)CC[C@]314 , kindly confirm whether its IC50 ratio is beneath 1.
satisfied

Regarding Oc1ccc2c3c1O[C@H]1c4[nH]c5ccccc5c4C[C@H]4[C@@H](C2)N(CCc2ccccc2)CC[C@]314 , kindly confirm whether its IC50 ratio is beneath 1.
satisfied

* * *

Provide the recorded Ki for the entries that follow.

Request body: readout Ki, system Kappa-type opioid receptor (Cavia porcellus), query Oc1ccc2c3c1O[C@H]1c4[nH]c5ccccc5c4C[C@@]4(O)[C@@H](C2)N(CCc2ccccc2)CC[C@]314 . Return the value.
> 1000 nM

Request body: readout Ki, system Kappa-type opioid receptor (Cavia porcellus), query Oc1ccc2c3c1O[C@H]1c4[nH]c5ccccc5c4C[C@@]4(O)C(C2)NCC[C@]314 . Return the value.
> 1000 nM

Request body: readout Ki, system Kappa-type opioid receptor (Cavia porcellus), query Oc1ccc2c3c1O[C@H]1c4[nH]c5ccccc5c4C[C@H]4[C@@H](C2)N(C/C=C/c2ccccc2)CC[C@]314 . Return the value.
> 1000 nM

* * *

# Tested on: Delta-type opioid receptor
# assay: Selectivity for kappa to delta opioid receptors was determined
# measurementConditions: Cavia porcellus
Where a SMILES comes first, the peptide text is derived from it. [ ]: non-standard residue; d: D form. The star is where a group is joined. Tyr(Nα,Nα-allyl2) = C=CCN(CC=C)[C@@H](Cc1ccc(O)cc1)C(=O)*; Aib = CC(C)(N)C(=O)O
valueType: Ratio

Request body: readout Ratio, system Delta-type opioid receptor, query Oc1ccc2c3c1O[C@H]1c4[nH]c5ccccc5c4C[C@H]4[C@@H](C2)N(C/C=C/c2ccccc2)CC[C@]314 . Return the value.
> 9

Request body: readout Ratio, system Delta-type opioid receptor, query Oc1ccc2c3c1O[C@H]1c4[nH]c5ccccc5c4C[C@@]4(O)C(C2)NCC[C@]314 . Return the value.
> 357

Request body: readout Ratio, system Delta-type opioid receptor, query C=CCN(CC=C)[C@@H](Cc1ccc(O)cc1)C(=O)NC(C)(C)C(=O)NC(C)(C)C(=O)N[C@@H](Cc1ccccc1)C(=O)N[C@@H](CC(C)C)C(=O)O ({Tyr(Nα,Nα-allyl2)}-[Aib][Aib]FL-OH) . Return the value.
> 29
